test system: K4 kissing-loop RNA reporter; test: apparent KD of K4 kissing-loop reporter; higher = weaker reporter binding; conditions: Eterna round: R107; input ligand: none;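 further: bound reporter read as fluorescence of individual clusters on recovered sequencing chips by microscopy, with normalized cluster intensities fitted with a binding model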
PROPERTY_LABEL: apparent KD of K4 kissing-loop reporter (nM)
All answers are understood in nM, so give the number only.

// known answers, use as guide
* CGUUCUUCUGUCGAUACCAGCUUCAGUUGGCGGCCAGUGAUGUUGGUAUCGCCGAUGCCAAGCCCUUGGCAGCGACAUGAGACCC [Onrire] | 182
* GCCGUACGCAUGGAUACCAGUCUUUCGCGACUGGACAUGGAGUGAUGUUUCGUGAUGCUAGACCCUUGGCAGCCAUGCGUACGGC | 206
* CCGAUGGGUACAGGAUAUGCCAGUGAUGUUGGUUUAGAUGGACCCAGAAGGAGACACCAGACGGAGGCAGAAGGGUAGCAAGGGA [Raarriis] | 106
* GCUAUGGUAGGAAGGAGCGCUUACUCGGUAAUAAGAGUGAUGUUCGAUACCGAGUAUUUAUAGCAGGUAGGUCGCCUACUAUAGC [Arginine B K4 5] | 195
* AAUGUGCAGGGAAGGAGCGUAGUCCAGUGCUGUUGGAGUUAAAUACCAGUGAUGUUGGUUAUACAGGUAGGUCGCCCUAAAGCGC [whbob_Ex_Arginine_B_2th160] | 158

Next sequence, please.
# input sequence: GACUCAUGUAGAAGGAGCGUCAGAAGCUACAGACAUGAGUGAUGUUCAUGUUAGUUGAUUUGACAGGUAGGUCGCUACAGCAGGA [KL-SSArg B15 #analogue] ; wanted: its apparent KD of K4 kissing-loop reporter
247
